Target: MAGE-A11:PCF11 (Homo sapiens (Human))
Sequence (P43364 218-429): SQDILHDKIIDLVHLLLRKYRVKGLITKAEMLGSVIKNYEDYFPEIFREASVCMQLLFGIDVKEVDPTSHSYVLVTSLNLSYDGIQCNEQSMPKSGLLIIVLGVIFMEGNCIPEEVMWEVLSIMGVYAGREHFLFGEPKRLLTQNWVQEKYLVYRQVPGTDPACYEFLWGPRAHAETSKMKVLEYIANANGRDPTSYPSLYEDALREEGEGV
Assay: TR-FRET single point screening at 15 μM
Assay type: binding
Parameters: unit not given here
Settings: single point TR-FRET screening at 15 μM against MAGE-A11:PCF11
TR-FRET signal strictly under 0.8 means True; at 0.8 or over means False.

Worked examples, 8 compounds total:
Cc1ccc(CN(CCCCNc2ccnc3cc(Cl)ccc23)Cc2ccccc2)o1; False
CCOC(=O)c1cnc2c(C(F)(F)F)cccc2c1NCCN1CCOCC1; False
O=[N+]([O-])c1cccc(CN2CCC(Nc3ccnc4cc(Cl)ccc34)CC2)c1; False
CCOC(=O)c1cnc2ccc(OCC)cc2c1NCCN(C)C; False
COc1ccc2nc3cc(Cl)ccc3c(NCCCNCc3ccncc3)c2c1; True
CCc1ccc2ncc(S(=O)(=O)c3ccc(OC)cc3)c(N3CCN(C)CC3)c2c1; True
CCN1CCN(c2c(S(=O)(=O)c3ccc(C)cc3)cnc3ccc(Cl)cc23)CC1; True
CCc1ccc2ncc(S(=O)(=O)c3ccccc3)c(N3CCN(CC)CC3)c2c1; False

Q: hey, is TR-FRET signal for CCN(CC)CC(=O)Nc1c2c(nc3ccccc13)CCCC2 lower than 0.8 or not?
Ans: False

Q: hey, is TR-FRET signal for CCOc1ccc2ncc(C(=O)c3ccc(OC)cc3)c(N3CCN(C)CC3)c2c1 lower than 0.8 or not?
Ans: True

Q: hey, is TR-FRET signal for Cc1ccc2ncc(S(=O)(=O)c3ccccc3)c(N3CCN(C)CC3)c2c1 lower than 0.8 or not?
Ans: True

Q: hey, is TR-FRET signal for O=S(=O)(c1ccc(Br)cc1)N1CCN(c2ccnc3cc(Cl)ccc23)CC1 lower than 0.8 or not?
Ans: True

Q: hey, is TR-FRET signal for COc1ccc2nc3cc(Cl)ccc3c(NCCCNCc3cccc(F)c3)c2c1 lower than 0.8 or not?
Ans: True

Q: hey, is TR-FRET signal for O=[N+]([O-])c1ccccc1CN(CCCCNc1ccnc2cc(Cl)ccc12)Cc1ccccc1 lower than 0.8 or not?
Ans: False
